Molecular target: UniProt:P28223
Sequence (P28223 whole entry): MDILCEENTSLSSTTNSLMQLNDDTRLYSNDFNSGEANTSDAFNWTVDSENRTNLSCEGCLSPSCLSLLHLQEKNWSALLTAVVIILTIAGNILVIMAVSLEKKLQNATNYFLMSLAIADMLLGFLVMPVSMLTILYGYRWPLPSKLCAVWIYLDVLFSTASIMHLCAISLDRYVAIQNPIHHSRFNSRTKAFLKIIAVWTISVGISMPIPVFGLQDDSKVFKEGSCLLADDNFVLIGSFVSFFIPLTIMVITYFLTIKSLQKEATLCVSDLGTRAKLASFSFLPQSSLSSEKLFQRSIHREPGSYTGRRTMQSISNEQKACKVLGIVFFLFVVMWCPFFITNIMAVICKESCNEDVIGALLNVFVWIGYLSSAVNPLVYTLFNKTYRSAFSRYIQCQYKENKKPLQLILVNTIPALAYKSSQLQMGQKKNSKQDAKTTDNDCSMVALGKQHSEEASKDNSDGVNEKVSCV
Experiment: Serotonin 5-HT2A in vitro radioligand binding competition assay ([3H]-DOI)
Parameters: purchased Epics Therapeutics S.A. (Belgium) FAST-0505B; host or cells: membrane extracts
Details: [3H]-DOI competition, membrane extracts
pIC50: −log10 of the molar value.
RECORDED_ENDPOINT: pIC50

Lookup: Let me know recorded pIC50 for "c1ccc(COc2cccc3c4c([nH]c23)CCNCC4)cc1" , thanks.
Found: 6.00 to 7.00

Lookup: Let me know recorded pIC50 for "CN1CCc2[nH]c3c(Br)ccc(OCc4ccccc4)c3c2CC1" , thanks.
Found: 7.00 to 8.00

Lookup: Let me know recorded pIC50 for "CN1CCc2[nH]c3cc(OCc4ccccc4)ccc3c2CC1" , thanks.
Found: 6.00 to 7.00

Lookup: Let me know recorded pIC50 for "Cn1c2c(c3c(Oc4ccc(F)cc4)cccc31)CCNCC2" , thanks.
Found: 7.00 to 8.00

Lookup: Let me know recorded pIC50 for "c1ccc(Oc2cccc3[nH]c4c(c23)CCNCC4)cc1" , thanks.
Found: 7.00 to 8.00

Lookup: Let me know recorded pIC50 for "CN1CCc2[nH]c3ccc(OCc4ccccc4)cc3c2CC1" , thanks.
Found: 6.00 to 7.00

Lookup: Let me know recorded pIC50 for "c1ccc(COc2ccc3[nH]c4c(c3c2)CCNCC4)cc1" , thanks.
Found: 6.00 to 7.00

Lookup: Let me know recorded pIC50 for "Cn1c2c(c3ccc(OCc4ccccc4)cc31)CCNCC2" , thanks.
Found: 6.00 to 7.00

Lookup: Let me know recorded pIC50 for "CN1CCc2[nH]c3cccc(OCc4ccccc4)c3c2CC1" , thanks.
Found: > 8.00

Lookup: Let me know recorded pIC50 for "CN1CCc2c(n(C)c3cccc(Oc4ccc(F)cc4)c23)CC1" , thanks.
Found: 7.00 to 8.00

Lookup: Let me know recorded pIC50 for "CN1CCc2[nH]c3cc(Oc4ccc(F)cc4)ccc3c2CC1" , thanks.
Found: 6.00 to 7.00

Lookup: Let me know recorded pIC50 for "c1ccc(COc2cccc3[nH]c4c(c23)CCNCC4)cc1" , thanks.
Found: 7.00 to 8.00

Lookup: Let me know recorded pIC50 for "Cn1c2c(c3ccc(OCc4ccc(F)cc4)cc31)CCNCC2" , thanks.
Found: 6.00 to 7.00

Lookup: Let me know recorded pIC50 for "c1ccc(COc2ccc3c4c([nH]c3c2)CCNCC4)cc1" , thanks.
Found: 6.00 to 7.00

Lookup: Let me know recorded pIC50 for "CN1CCc2[nH]c3cc(OCc4ccc(F)cc4)ccc3c2CC1" , thanks.
Found: 6.00 to 7.00

Lookup: Let me know recorded pIC50 for "CN1CCc2c(n(C)c3cc(Oc4ccc(F)cc4)ccc23)CC1" , thanks.
Found: 6.00 to 7.00

Lookup: Let me know recorded pIC50 for "Cn1c2c(c3ccc(Oc4ccccc4)cc31)CCNCC2" , thanks.
Found: 5.00 to 6.00

Lookup: Let me know recorded pIC50 for "CN1CCc2c(n(C)c3cc(OCc4ccccc4)ccc23)CC1" , thanks.
Found: 6.00 to 7.00

Lookup: Let me know recorded pIC50 for "Cn1c2c(c3c(OCc4ccccc4)cccc31)CCNCC2" , thanks.
Found: 6.00 to 7.00

Lookup: Let me know recorded pIC50 for "CN1CCc2[nH]c3cccc(Oc4ccc(F)cc4)c3c2CC1" , thanks.
Found: 7.00 to 8.00
